- targetSystem: Kappa-type opioid receptor (Homo sapiens, UniProt P41145)
- Sequence (P41145 whole entry): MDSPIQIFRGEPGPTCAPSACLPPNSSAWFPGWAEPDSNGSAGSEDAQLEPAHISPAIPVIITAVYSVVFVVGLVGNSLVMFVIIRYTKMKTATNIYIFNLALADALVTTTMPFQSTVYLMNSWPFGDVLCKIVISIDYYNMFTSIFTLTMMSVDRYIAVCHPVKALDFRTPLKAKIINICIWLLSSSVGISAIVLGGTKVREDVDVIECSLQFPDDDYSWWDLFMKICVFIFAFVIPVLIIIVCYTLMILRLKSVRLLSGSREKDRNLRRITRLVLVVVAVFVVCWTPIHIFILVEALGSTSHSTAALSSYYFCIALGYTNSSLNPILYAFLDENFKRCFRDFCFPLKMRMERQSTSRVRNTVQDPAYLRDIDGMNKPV
- Assay type: functional
property: IC50

Req: Recorded IC50 of CCN(CCCNC(=O)C1CCN(S(=O)(=O)N2CCC3(CC2)OCCO3)CC1)c1ccccc1 , please.
Resp: 9.69 µM

Req: Now the same for CCOc1ccc(C(=O)NC2CC3CCCC(C2)N3Cc2ccccc2)cc1 (stereo not drawn)
Resp: 14.8 µM

Req: Request: CCn1c(Cl)c(C=O)s/c1=N\S(=O)(=O)c1ccccc1
Resp: 4.85 µM

###

- targetSystem: UniProt:Q96LD8
- Sequence (Q96LD8 whole entry): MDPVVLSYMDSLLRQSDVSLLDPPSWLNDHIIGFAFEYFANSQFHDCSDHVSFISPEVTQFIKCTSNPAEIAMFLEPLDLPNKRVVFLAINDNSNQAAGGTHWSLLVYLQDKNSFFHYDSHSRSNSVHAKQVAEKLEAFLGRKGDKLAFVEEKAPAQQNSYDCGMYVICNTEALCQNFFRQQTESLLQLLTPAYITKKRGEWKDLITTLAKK
- Format: functional
Calls of active or inactive are those of the source.
property: IC50

Req: Would you mind telling me what IC50 value was observed for Cn1c(SCc2ccc(C#N)cc2Cl)nc2ccccc21 ?
Resp: 14.8 µM (active)

Req: For CCOC(=O)CN1C(=O)S/C(=C\c2ccc(-c3cccc(C(=O)O)c3C)o2)C1=O then?
Resp: 16.2 µM (active)

Req: Follow-up item: Cc1ccc(S(=O)(=O)NC(=NNC(=O)c2cccc(Cl)c2)c2ccccc2)cc1
Resp: 19.4 µM (active)

Req: And CCOc1cccc(-c2nc3cc(C)ccc3o2)c1 ?
Resp: 39.6 µM (active)
